- Target: "5-HT1 -like" receptor (Canis lupus familiaris, UniProt P79250)
- Construct: dog isolated saphenous vein strip
- Sequence (P79250 whole entry): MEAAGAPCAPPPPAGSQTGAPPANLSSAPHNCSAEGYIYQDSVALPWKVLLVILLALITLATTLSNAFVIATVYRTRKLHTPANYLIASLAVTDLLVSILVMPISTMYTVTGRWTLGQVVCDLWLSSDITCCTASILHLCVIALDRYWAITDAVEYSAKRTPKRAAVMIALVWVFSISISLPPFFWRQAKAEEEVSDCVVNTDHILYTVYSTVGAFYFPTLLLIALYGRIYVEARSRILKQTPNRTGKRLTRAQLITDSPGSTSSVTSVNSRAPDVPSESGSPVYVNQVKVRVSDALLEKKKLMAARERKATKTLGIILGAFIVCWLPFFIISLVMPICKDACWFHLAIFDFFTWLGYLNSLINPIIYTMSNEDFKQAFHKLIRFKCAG
- Experiment notes: contraction of dog isolated saphenous vein strip (in vitro "5-HT1 -like" receptor agonist activity)
- Experimental context: concentration which causes 50% of the maximum contraction effected by the compound
Form field: EC50 (one value per entry).
Give the number; nM is assumed, so skip it.

Worked cases, answers included:
>>> endpoint_result("CC(O)(CCc1ccc2[nH]cc(C[C@H]3CCCN3)c2c1)C(F)(F)F (stereo partly shown)")
320
>>> endpoint_result("CC(=O)CCc1ccc2[nH]cc(C[C@H]3CCCN3)c2c1")
130
>>> endpoint_result("CC(C)(O)CCc1ccc2[nH]cc(CCN)c2c1")
300

"CC(C)(O)CCc1ccc2[nH]cc(C[C@H]3CCCN3CC3CC3)c2c1" yielded EC50 of 480

Source listed as patent US5607960A.
